Data origin, for the record: ChEMBL document CHEMBL5058577

System: Fibroblast
test.name: Multiplex assay against human fibroblast
Assay type: toxicity, cell-based
condition: 12 h, 10 µM, compound concentration 10 uM, replicate 2
Population Mitochondria Different-Phenotype (%) overview
reported.metric: Population Mitochondria Different-Phenotype (%)

- compound: "CC(C)(C)c1ccc(S(=O)(=O)Nc2ccc(Cl)cc2C(=O)c2cc[n+]([O-])cc2)cc1"
  unit.label: "%"
  reading: 10
- compound: "CC[C@H]1OC(=O)[C@H](C)[C@@H](O[C@H]2C[C@@](C)(OC)[C@@H](O)[C@H](C)O2)[C@H](C)[C@@H](O[C@@H]2O[C@H](C)C[C@H](N(C)C)[C@H]2O)[C@@]2(C)CC(C)=C(O2)[C@H](C)[C@@H](O)[C@]1(C)O"
  unit.label: "%"
  reading: 11
- compound: "c1cc(OCCCN2CCCCC2)ccc1CN1CCCCC1"
  unit.label: "%"
  reading: 10
- compound: "O=C1COc2nccc(-c3ccccc3F)c2CN1Cc1cc(C(F)(F)F)cc(C(F)(F)F)c1"
  unit.label: "%"
  reading: 12
- compound: "COc1ccc2c(c1)C(C(=O)N(Cc1ccc(N(C)C)cc1)c1ccc(C(C)C)cc1)CCC2.Cl (stereo unspecified)"
  unit.label: "%"
  reading: 14
- compound: "Cl.Clc1ccc2nsnc2c1NC1=NCCN1 [TIZANIDINE HYDROCHLORIDE]"
  unit.label: "%"
  reading: 7
- compound: "CCCn1c(=O)c2[nH]c(C3CCCC3)nc2n(CCC)c1=O"
  unit.label: "%"
  reading: 3
- compound: "COc1cc(C(=O)N(CCCc2ccccc2)Cc2ccc(CC(=O)O)cc2)cc(OC)c1C"
  unit.label: "%"
  reading: 4
- compound: "CCNC1(C(N)=O)CCN(c2ncnc3c2nc(-c2ccccc2Cl)n3-c2ccc(Cl)cc2)CC1"
  unit.label: "%"
  reading: 18
- compound: "CN1CCN(c2nc3cc(C(F)(F)F)ccc3n3cccc23)CC1.O=C(O)/C=C\\C(=O)O.O=C(O)/C=C\\C(=O)O"
  unit.label: "%"
  reading: 38
- compound: "C[C@H](NC(=O)c1c(C(F)F)nn(C)c1Oc1cccc(C(F)(F)F)c1)c1ccc(C(=O)O)cc1"
  unit.label: "%"
  reading: 13
- compound: "N#Cc1c(N)nc(SCc2csc(-c3ccc(Cl)cc3)n2)c(C#N)c1-c1ccc(OCCO)cc1"
  unit.label: "%"
  reading: 14
- compound: "C[C@H]1[C@H]2CC[C@H]3[C@@H]4CC=C5C[C@@H](N(C)C)CC[C@]5(C)[C@H]4CC[C@]23CN1C"
  unit.label: "%"
  reading: 4
- compound: "COc1cc(NC(=O)CCN2CCC(OC(=O)Nc3ccccc3-c3ccccc3)CC2)c(Cl)cc1CNC[C@H](O)c1ccc(O)c2[nH]c(=O)ccc12"
  unit.label: "%"
  reading: 23
- compound: "O=C(O)c1cc2ccccc2c(Cc2c(O)c(C(=O)O)cc3ccccc23)c1O"
  unit.label: "%"
  reading: 3
- compound: "COc1c(C)cc(NC(=O)c2nn(Cc3ccc(F)cc3)c3c2CN(C(=O)c2ccc[nH]2)C[C@]3(C)C(N)=O)cc1C"
  unit.label: "%"
  reading: 30

----------
Below is a list of entries, each paired with its recorded Population Normal (%) value.
Tested on: U2OS
test.name: Multiplex assay against U2OS
Type: toxicity, cell-based
condition: human, 48 h, 10 µM, compound concentration 10 uM, replicate 2
reported.metric: Population Normal (%)

- compound: "CCCN1CCC[C@@H]2Cc3n[nH]cc3C[C@H]21.Cl [QUINPIROLE HYDROCHLORIDE]"
  reported.metric: "Population Normal (%)"
  reading: 98
- compound: "CCCC(CCC)C(=O)O"
  reported.metric: "Population Normal (%)"
  reading: 98
- compound: "COc1cc(NC(=O)CCN2CCC(OC(=O)Nc3ccccc3-c3ccccc3)CC2)c(Cl)cc1CNC[C@H](O)c1ccc(O)c2[nH]c(=O)ccc12"
  reported.metric: "Population Normal (%)"
  reading: 89
- compound: "Cc1ccc(F)cc1C(=O)Nc1ccc(C(=O)N2Cc3cccn3Cc3ccccc32)c(Cl)c1"
  reported.metric: "Population Normal (%)"
  reading: 87
- compound: "c1cc(OCCCN2CCCCC2)ccc1CN1CCCCC1"
  reported.metric: "Population Normal (%)"
  reading: 98
- compound: "Cc1nc2ccc(Oc3ccc(F)cc3)cc2c(=O)n1C[C@H]1CCCN(C(C)C)C1.Cl"
  reported.metric: "Population Normal (%)"
  reading: 91
- compound: "CCCn1c(=O)c2[nH]c(C3CCCC3)nc2n(CCC)c1=O"
  reported.metric: "Population Normal (%)"
  reading: 96
- compound: "CC(C)(C)c1ccc(S(=O)(=O)Nc2ccc(Cl)cc2C(=O)c2cc[n+]([O-])cc2)cc1"
  reported.metric: "Population Normal (%)"
  reading: 97
- compound: "O=C(O)Cc1ccccc1Nc1c(Cl)cccc1Cl"
  reported.metric: "Population Normal (%)"
  reading: 98
- compound: "CC[C@H]1OC(=O)[C@H](C)[C@@H](O[C@H]2C[C@@](C)(OC)[C@@H](O)[C@H](C)O2)[C@H](C)[C@@H](O[C@@H]2O[C@H](C)C[C@H](N(C)C)[C@H]2O)[C@@]2(C)CC(C)=C(O2)[C@H](C)[C@@H](O)[C@]1(C)O"
  reported.metric: "Population Normal (%)"
  reading: 90
- compound: "Cc1ccc(C(C)(O)c2nc3ccccc3s2)c(C)c1 (stereo not drawn)"
  reported.metric: "Population Normal (%)"
  reading: 94
- compound: "O=C(NCCO)c1cccc(-c2cc(Nc3ccc(OC(F)(F)F)cc3)ncn2)c1"
  reported.metric: "Population Normal (%)"
  reading: 97
- compound: "CN1CCN(c2nc3cc(C(F)(F)F)ccc3n3cccc23)CC1.O=C(O)/C=C\\C(=O)O.O=C(O)/C=C\\C(=O)O"
  reported.metric: "Population Normal (%)"
  reading: 96
- compound: "Cc1ccc(-c2ccc(F)cc2COc2ccc(CCC(=O)O)cc2)cc1"
  reported.metric: "Population Normal (%)"
  reading: 98
- compound: "COc1c(C)cc(NC(=O)c2nn(Cc3ccc(F)cc3)c3c2CN(C(=O)c2ccc[nH]2)C[C@]3(C)C(N)=O)cc1C"
  reported.metric: "Population Normal (%)"
  reading: 90
- compound: "CSc1ccccc1N1CCN(CCCCCC(=O)NC2CCCc3ccccc32)CC1.Cl (stereo not drawn)"
  reported.metric: "Population Normal (%)"
  reading: 88
- compound: "CCNC1(C(N)=O)CCN(c2ncnc3c2nc(-c2ccccc2Cl)n3-c2ccc(Cl)cc2)CC1"
  reported.metric: "Population Normal (%)"
  reading: 89
- compound: "Oc1c(CN2CCN(c3ccccn3)CC2)cc(Cl)c2cccnc12"
  reported.metric: "Population Normal (%)"
  reading: 95
- compound: "CN(C)c1ccnc2sc3c(=O)n(N4CCCCCC4)cnc3c12"
  reported.metric: "Population Normal (%)"
  reading: 90
- compound: "CN(C)CCCc1cc(C(=O)Nc2ccc(-c3ccncc3)cc2)ccc1O.Cl.Cl"
  reported.metric: "Population Normal (%)"
  reading: 95
- compound: "N#Cc1c(N)nc(SCc2csc(-c3ccc(Cl)cc3)n2)c(C#N)c1-c1ccc(OCCO)cc1"
  reported.metric: "Population Normal (%)"
  reading: 95
- compound: "O=C(NCC(=O)N1CC[C@H](N[C@H]2CC[C@@](O)(c3ccc(-c4ncccn4)cn3)CC2)C1)c1cccc(C(F)(F)F)c1"
  reported.metric: "Population Normal (%)"
  reading: 100
- compound: "O=S(=O)(c1ccccc1)c1cnc2c(N3CCNCC3)cccc2c1 [INTEPIRDINE]"
  reported.metric: "Population Normal (%)"
  reading: 97
- compound: "CNC[C@H](O)c1ccc(O)c(O)c1 [EPINEPHRINE]"
  reported.metric: "Population Normal (%)"
  reading: 82
- compound: "CC1(COc2ccc3c(c2)ncn3-c2ccc3cccc(N4CCC(N)CC4)c3n2)COC1"
  reported.metric: "Population Normal (%)"
  reading: 70
- compound: "Cl.Clc1ccc2nsnc2c1NC1=NCCN1 [TIZANIDINE HYDROCHLORIDE]"
  reported.metric: "Population Normal (%)"
  reading: 95
- compound: "C[C@H]1[C@H]2CC[C@H]3[C@@H]4CC=C5C[C@@H](N(C)C)CC[C@]5(C)[C@H]4CC[C@]23CN1C"
  reported.metric: "Population Normal (%)"
  reading: 93
- compound: "COc1ccc2c(c1)C(C(=O)N(Cc1ccc(N(C)C)cc1)c1ccc(C(C)C)cc1)CCC2.Cl (stereo not drawn)"
  reported.metric: "Population Normal (%)"
  reading: 91
- compound: "Cc1ccc(/C(=C\\CN2CCCC2)c2ccccn2)cc1"
  reported.metric: "Population Normal (%)"
  reading: 95
- compound: "C[C@H](NC(=O)c1c(C(F)F)nn(C)c1Oc1cccc(C(F)(F)F)c1)c1ccc(C(=O)O)cc1"
  reported.metric: "Population Normal (%)"
  reading: 98
- compound: "O=C(O)c1cc2ccccc2c(Cc2c(O)c(C(=O)O)cc3ccccc23)c1O"
  reported.metric: "Population Normal (%)"
  reading: 99
- compound: "CC(=O)NCCc1c(Cc2ccccc2)[nH]c2ccccc12"
  reported.metric: "Population Normal (%)"
  reading: 98
- compound: "COc1cc(C(=O)N(CCCc2ccccc2)Cc2ccc(CC(=O)O)cc2)cc(OC)c1C"
  reported.metric: "Population Normal (%)"
  reading: 96
